System: CASKI
Assay: Primary qHTS to identify gynecologic anti-cancer compounds using libraries of approved drugs and bioactive compounds (AID 1345084); note: nearly all actives have a fitted effect of over 55% in size
Settings: Gynecologic cancer cell panel viability, ATPlite luminescence, 48 h; series mostly up to 57.5 µM
Records with an inconclusive call do not appear. Activity calls are given as the source filed them. Calls come from the whole dose curve; as a rule, active = well fitted cell-killing curve with a large enough effect; inconclusive = small, poorly fitted or top-dose-only effect, or effect the other way; inactive = flat fitted curve, though single readings scatter.
Classes used: true (active), false (inactive)

compound: COc1ccccc1N1CCN(CCN(C(=O)C2CCCCC2)c2ccccn2)CC1
category: false

compound: Cc1cc(=O)c2c(O)c3c(O)cc(=O)c4c3c3c(cc(O)c1c23)C(C)(C)C=4O
category: true

compound: N=C(N)c1ccc2cc(OC(=O)c3ccc(N=C(N)N)cc3)ccc2c1
category: false

compound: NNc1nncc2ccccc12
category: false

compound: CN(C)[C@@H](CCOc1cccc2ccccc12)c1ccccc1
category: false

compound: Cc1cccc(C)c1OCC(=O)N[C@@H](Cc1ccccc1)[C@@H](O)C[C@H](Cc1ccccc1)NC(=O)[C@H](C(C)C)N1CCCNC1=O
category: false

compound: Cc1ccc(C)c(OCCCC(C)(C)C(=O)O)c1
category: false

compound: CN(C)c1ccc(O)c2c1C[C@H]1C[C@H]3[C@H](N(C)C)C(=O)C(C(N)=O)=C(O)[C@@]3(O)C(=O)C1=C2O
category: false

compound: c1cnc2cc3c(cc2n1)C1CNCC3C1
category: false

compound: Cc1nccn1CC1CCc2c(c3ccccc3n2C)C1=O (centres undefined)
category: false

compound: Nc1cc(C(Cl)=C(Cl)Cl)c(S(N)(=O)=O)cc1S(N)(=O)=O
category: false

compound: CS(=O)(=O)OCCCCOS(C)(=O)=O
category: false

compound: COC1=C(OC)C(=O)C(CCCCCCCCCCO)=C(C)C1=O
category: false

compound: CCOC(=O)c1c(C)n(C)c2ccc(O)cc12
category: false
